Data credit: patent US7674823B2

- TARGET OF ASSAY: PI 3-kinase (p110α/p85α) (UniProt P32871)
- Construct: other: GST-fused p110α/p85α
- PROCEDURE DETAILS: PI 3-kinase inhibition assay
- CONDITION SET: GST-fused p110α/p85α
Measured IC50 by item
MEASUREMENT KIND: IC50

COMPOUND	TARGET OF ASSAY	READOUT VALUE
O=c1cc(N2CCOCC2)oc2cc3ccccc3cc12 [Compound 301, 2-(morpholin-4-yl)-benzo[g]chromen-4-one]	PI 3-kinase (p110α/p85α) (UniProt P32871)	16 µM
O=c1cc(-c2ccc(F)cc2)oc(N2CCOCC2)c1	PI 3-kinase (p110α/p85α) (UniProt P32871)	13 µM
O=c1cc(N2CCOCC2)oc2c3c(ccc12)CCCC3	PI 3-kinase (p110α/p85α) (UniProt P32871)	18 µM
O=c1cc(N2CCSCC2)oc2c1ccc1ccccc12	PI 3-kinase (p110α/p85α) (UniProt P32871)	6 µM
CC1CN(c2cc(=O)c3ccc4ccccc4c3o2)CCO1 (centres unmarked)	PI 3-kinase (p110α/p85α) (UniProt P32871)	2.5 µM

====

- TARGET OF ASSAY: ATM protein (Homo sapiens, UniProt Q13315)
- Construct: ATM protein was immunoprecipitated from HeLa cell nuclear extract; endogenous in cells
- Sequence (Q13315 whole entry): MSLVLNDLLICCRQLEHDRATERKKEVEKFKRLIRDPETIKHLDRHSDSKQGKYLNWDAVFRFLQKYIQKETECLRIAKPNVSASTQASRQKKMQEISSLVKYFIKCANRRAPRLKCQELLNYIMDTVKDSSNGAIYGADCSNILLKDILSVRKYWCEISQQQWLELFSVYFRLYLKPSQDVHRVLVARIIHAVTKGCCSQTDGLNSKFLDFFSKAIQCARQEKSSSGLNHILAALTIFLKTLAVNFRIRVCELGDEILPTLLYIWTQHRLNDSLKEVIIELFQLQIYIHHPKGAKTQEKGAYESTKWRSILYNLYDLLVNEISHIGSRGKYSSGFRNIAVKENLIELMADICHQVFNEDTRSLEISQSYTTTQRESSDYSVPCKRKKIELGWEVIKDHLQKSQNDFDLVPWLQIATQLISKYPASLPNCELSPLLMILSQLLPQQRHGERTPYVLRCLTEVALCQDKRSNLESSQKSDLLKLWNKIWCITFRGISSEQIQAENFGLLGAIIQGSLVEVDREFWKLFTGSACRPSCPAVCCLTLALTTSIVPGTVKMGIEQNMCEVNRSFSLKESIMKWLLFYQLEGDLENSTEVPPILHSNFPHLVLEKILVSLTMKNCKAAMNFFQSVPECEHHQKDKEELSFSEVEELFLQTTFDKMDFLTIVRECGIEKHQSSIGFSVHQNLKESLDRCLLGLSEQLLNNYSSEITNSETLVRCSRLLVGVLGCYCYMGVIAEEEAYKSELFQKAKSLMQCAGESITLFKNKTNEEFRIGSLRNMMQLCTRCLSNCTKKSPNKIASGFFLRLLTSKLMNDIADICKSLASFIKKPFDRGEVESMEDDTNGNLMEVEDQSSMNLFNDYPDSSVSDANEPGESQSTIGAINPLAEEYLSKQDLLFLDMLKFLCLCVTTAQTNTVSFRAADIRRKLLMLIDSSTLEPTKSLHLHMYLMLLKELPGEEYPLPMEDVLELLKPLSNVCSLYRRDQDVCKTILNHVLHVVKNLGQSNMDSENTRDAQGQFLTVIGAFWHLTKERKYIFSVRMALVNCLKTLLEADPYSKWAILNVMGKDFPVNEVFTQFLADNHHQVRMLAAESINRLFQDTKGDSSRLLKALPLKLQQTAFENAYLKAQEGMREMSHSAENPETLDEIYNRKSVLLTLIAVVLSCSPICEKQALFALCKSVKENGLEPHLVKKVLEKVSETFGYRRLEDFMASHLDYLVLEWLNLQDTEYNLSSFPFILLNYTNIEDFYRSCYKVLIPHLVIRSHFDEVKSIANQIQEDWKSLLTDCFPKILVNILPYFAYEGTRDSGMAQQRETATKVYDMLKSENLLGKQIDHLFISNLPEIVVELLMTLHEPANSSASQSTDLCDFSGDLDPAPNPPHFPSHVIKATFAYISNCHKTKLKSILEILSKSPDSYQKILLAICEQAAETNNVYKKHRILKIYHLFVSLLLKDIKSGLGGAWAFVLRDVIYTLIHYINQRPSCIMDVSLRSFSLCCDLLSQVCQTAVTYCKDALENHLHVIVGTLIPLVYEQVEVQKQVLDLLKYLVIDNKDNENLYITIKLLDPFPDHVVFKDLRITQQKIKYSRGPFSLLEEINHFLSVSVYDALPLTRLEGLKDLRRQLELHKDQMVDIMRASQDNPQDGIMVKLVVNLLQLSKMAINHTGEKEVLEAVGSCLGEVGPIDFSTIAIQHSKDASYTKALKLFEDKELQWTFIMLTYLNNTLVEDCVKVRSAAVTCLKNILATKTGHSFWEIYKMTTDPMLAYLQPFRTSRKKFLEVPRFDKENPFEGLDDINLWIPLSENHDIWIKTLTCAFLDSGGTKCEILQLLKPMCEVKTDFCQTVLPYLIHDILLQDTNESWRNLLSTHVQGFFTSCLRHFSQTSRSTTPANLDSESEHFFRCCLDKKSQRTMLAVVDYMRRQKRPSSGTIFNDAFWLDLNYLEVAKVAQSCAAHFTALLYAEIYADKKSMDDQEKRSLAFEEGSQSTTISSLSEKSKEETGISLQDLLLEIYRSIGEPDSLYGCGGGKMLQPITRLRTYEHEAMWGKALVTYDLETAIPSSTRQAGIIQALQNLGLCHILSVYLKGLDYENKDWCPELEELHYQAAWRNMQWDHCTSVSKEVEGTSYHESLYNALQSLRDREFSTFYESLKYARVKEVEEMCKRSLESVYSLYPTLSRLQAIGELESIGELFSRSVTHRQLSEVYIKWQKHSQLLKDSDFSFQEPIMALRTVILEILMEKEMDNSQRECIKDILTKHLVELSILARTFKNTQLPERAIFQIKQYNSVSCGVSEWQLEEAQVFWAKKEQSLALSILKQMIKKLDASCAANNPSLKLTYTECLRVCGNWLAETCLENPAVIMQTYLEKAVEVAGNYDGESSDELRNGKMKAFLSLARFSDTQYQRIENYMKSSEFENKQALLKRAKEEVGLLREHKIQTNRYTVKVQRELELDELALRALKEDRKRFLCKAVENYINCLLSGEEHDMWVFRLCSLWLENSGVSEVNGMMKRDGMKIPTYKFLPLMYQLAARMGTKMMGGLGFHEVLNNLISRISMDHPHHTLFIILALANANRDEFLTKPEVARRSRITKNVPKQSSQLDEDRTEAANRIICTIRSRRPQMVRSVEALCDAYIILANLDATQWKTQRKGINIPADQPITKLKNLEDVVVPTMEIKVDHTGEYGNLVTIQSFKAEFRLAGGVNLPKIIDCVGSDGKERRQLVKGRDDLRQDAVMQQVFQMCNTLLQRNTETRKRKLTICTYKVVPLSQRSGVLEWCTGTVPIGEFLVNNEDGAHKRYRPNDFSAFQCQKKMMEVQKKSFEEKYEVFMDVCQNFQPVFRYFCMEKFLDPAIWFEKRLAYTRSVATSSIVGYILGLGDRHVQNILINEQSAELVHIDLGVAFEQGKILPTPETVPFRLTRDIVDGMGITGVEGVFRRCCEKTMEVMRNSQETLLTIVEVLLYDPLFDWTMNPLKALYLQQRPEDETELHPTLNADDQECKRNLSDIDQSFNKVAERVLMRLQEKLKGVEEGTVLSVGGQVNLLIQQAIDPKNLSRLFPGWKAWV
- PROCEDURE DETAILS: ATM inhibition assay (immunoprecipitated ATM, GSTp53N66 substrate)
Measured IC50 by item
MEASUREMENT KIND: IC50

COMPOUND	READOUT VALUE
COc1ccc(-c2cc(=O)cc(N3CCOCC3)o2)cc1	> 100 µM
O=c1cc(N2CCSCC2)oc2c1ccc1ccccc12	> 100 µM
O=c1cc(-c2ccccc2)oc(N2CCOCC2)c1	> 50 µM
CC(C)(C)c1ccc(-c2cc(=O)cc(N3CCOCC3)o2)cc1	> 50 µM
COc1cccc(-c2cc(=O)cc(N3CCOCC3)o2)c1	> 50 µM
CC1CN(c2cc(=O)c3ccc4ccccc4c3o2)CCO1 (stereo not shown)	> 100 µM
O=c1cc(N2CCOCC2)oc2cc(OCc3ccccc3)ccc12	> 100 µM
O=c1cc(N2CCOCC2)oc2ccc3ccccc3c12 [Compound 310, 2-morpholin-4-yl-benzo[f]chromen-4-one]	> 100 µM
O=c1cc(-c2cccc(F)c2)oc(N2CCOCC2)c1	> 50 µM
O=c1cc(N2CCOCC2)oc2cc3ccccc3cc12 [Compound 301, 2-(morpholin-4-yl)-benzo[g]chromen-4-one]	> 50 µM
O=c1cc(N2CCOCC2)oc2cc(O)ccc12	> 100 µM
O=C(Oc1ccc2c(=O)cc(N3CCOCC3)oc2c1)c1ccccc1	> 100 µM
O=c1cc(N2CCOCC2)oc2cc(OCc3ccc(Br)cc3)ccc12	> 100 µM
O=c1cc(N2CCOCC2)nc2c3ccccc3ccn12	> 100 µM
O=c1cc(N2CCOCC2)oc2cc(OCc3ccc(Cl)cc3)ccc12	> 100 µM
O=c1cc(N2CCOCC2)oc2c3c(ccc12)CCCC3	45 µM
O=c1cc(-c2ccc(F)cc2)oc(N2CCOCC2)c1	> 100 µM
O=c1cc(N2CCOCC2)oc2cc(OCc3ccc(F)cc3)ccc12	> 100 µM
O=c1cc(N2CCOCC2)oc2cc(OCc3ccc4ccccc4c3)ccc12	> 100 µM

====

Measured melting point by item
MEASUREMENT KIND: melting point

MOLECULE	READOUT VALUE
O=c1cc(N2CCOCC2)oc2cc(OS(=O)(=O)C(F)(F)F)ccc12 [Compound 306]	143 to 145 °C
COc1cccc(-c2cc(=O)cc(N3CCOCC3)o2)c1 [Compound 287]	115 to 117 °C
CN(CC(O)c1ccccc1)c1cc(=O)n2ccc3ccccc3c2n1 (stereo not shown) [Compound 16]	195 to 196 °C
O=c1cc(NCC(O)CO)nc2c3ccccc3ccn12 (stereo not shown) [Compound 19]	215 to 216 °C
O=C(Oc1ccc2c(=O)cc(N3CCOCC3)oc2c1)c1ccccc1 [Compound 423]	204 to 206 °C
O=c1cc(N2CCOCC2)oc2ccc(-c3ccccc3)cc12 [Compound 298, 2-(Morpholin-4-yl)-6-phenylchromen-4-one]	218 to 220 °C
O=c1cc(-c2cccc(F)c2)oc(N2CCOCC2)c1 [Compound 291]	169 to 170 °C
CC(C)(C)c1ccc(-c2cc(=O)cc(N3CCOCC3)o2)cc1 [Compound 289]	156 °C
O=c1cc(N2CCOCC2)oc2cc(OCc3ccc4ccccc4c3)ccc12 [Compound 418]	263 to 264 °C
O=c1cc(N2CCOCC2)oc2c3c(ccc12)CCCC3 [Compound 297]	220 to 222 °C
O=c1cc(NCC2CCCO2)nc2c3ccccc3ccn12 (stereo not shown) [Compound 10]	174 to 175 °C
O=c1cc(N2CCOCC2)oc2cc(OCc3ccccc3Cl)ccc12 [Compound 417]	167 to 168 °C
Cc1cccc2c(=O)cc(N3CCOCC3)oc12 [Compound 302, 8-Methyl-2-morpholin-4-yl-chromen-4-one]	148 °C
O=c1cc(NCC(O)c2cccc(O)c2)nc2c3ccccc3ccn12 (stereo not shown) [Compound 21]	159 to 161 °C
CC1CCC(C)N(c2cc(=O)n3ccc4ccccc4c3n2)C1 (stereo not shown) [Compound 7]	214 to 216 °C
O=c1cc(N2CCSCC2)nc2c3ccccc3ccn12 [Compound 6]	240 to 242 °C
CN(CCC#N)c1cc(=O)n2ccc3ccccc3c2n1 [Compound 17]	166 to 167 °C
O=c1cc(N2CCOCC2)cc(-c2ccccc2)o1 [Compound 1, 4-morpholin-4-yl-6-(phenyl)-pyran-2-one]	161 to 162 °C
O=c1cc(N2CCSCC2)oc2c1ccc1ccccc12 [Compound 296]	171 to 173 °C
O=C1c2ccccc2C(=O)N1CCCOc1ccc2c(=O)cc(N3CCOCC3)oc2c1 [Compound 422]	210 to 211 °C
O=c1cc(-c2ccccc2F)oc(N2CCOCC2)c1 [Compound 290]	137 to 138 °C
O=c1cc(NCCc2cccs2)nc2c3ccccc3ccn12 [Compound 18]	162 to 163 °C
COc1ccccc1-c1cc(=O)cc(N2CCOCC2)o1 [Compound 286]	125 to 127 °C
O=c1cc(N2CCCC(CO)C2)oc2c1ccc1ccccc12 (stereo not shown) [Compound 313]	209 to 210 °C
O=c1cc(N2CCOCC2)oc2c(OS(=O)(=O)C(F)(F)F)cccc12 [Compound 305]	177.8 to 178.9 °C
C[C@@H]1CN(c2cc(=O)c3ccc4ccccc4c3o2)C[C@H](C)O1 [Compound 309]	211 to 212.5 °C
O=c1cc(N2CCCCC2)oc2c1ccc1ccccc12 [Compound 295, 2-piperidin-1-yl-benzo[h]chromen-4-one]	205 to 207 °C
COc1cccc2c(=O)cc(N3CCOCC3)oc12 [Compound 303, 8-Methoxy-2-morpholin-4-yl-chromen-4-one]	165 °C
O=c1cc(N2CCCC(CO)C2)nc2c3ccccc3ccn12 (stereo not shown) [Compound 9]	165 to 166 °C
O=c1cc(NCC2CCCO2)oc2c1ccc1ccccc12 (stereo not shown) [Compound 316]	139 to 140 °C
COc1ccc(-c2cc(N3CCOCC3)cc(=O)o2)cc1 [Compound 3]	212 to 213 °C
O=c1cc(NCCO)nc2c3ccccc3ccn12 [Compound 22]	218 to 221 °C
CN1CCN(c2cc(=O)c3ccc4ccccc4c3o2)CC1 [Compound 314]	184 to 185 °C
O=c1cc(N(CCO)CCO)nc2c3ccccc3ccn12 [Compound 11]	211 to 212 °C
O=c1cc(N2CCNCC2)oc2c1ccc1ccccc12 [Compound 311, 2-piperazin-1-yl-benzo[h]chromen-4-one]	208 to 209 °C
CC1CN(c2cc(=O)c3ccc4ccccc4c3o2)CCO1 (stereo not shown) [Compound 317]	181 to 183 °C
O=c1cc(-c2ccccc2)oc(N2CCOCC2)c1 [Compound 285, 2-(morpholin-4-yl)-6-phenyl-pyran-4-one]	148 to 150 °C

====

- TARGET OF ASSAY: Mammalian DNA-PK, isolated from Hela cell nuclear extract (Homo sapiens)
- Construct: Mammalian DNA-PK, isolated from Hela cell nuclear extract; endogenous in cells; host or cells: HeLa cell nuclear extract (purified per Gell and Jackson 1999)
- PROCEDURE DETAILS: DNA-PK inhibition assay (33P-ATP, filter binding)
- Format: biochemical
- CONDITION SET: concentration at which 50% of the enzyme activity is inhibited; read-out: DNA-PK Inhibition IC50
- Description: In order to assess the inhibitory action of the compounds against DNA-PK in vitro, the following assay was used to determine IC50 values. The total assay volume per well was 40 μl. […] The plates were transferred to a TopCount NXT (TRADE MARK) (Packard, UK) for scintillation counting. Values recorded are counts per minute (cpm) following a 1 minute counting time for each well. The enzyme activity for each compound is then calculated using the following equation: […]
Measured IC50 by item

COMPOUND	IC50
O=c1cc(N2CCOCC2)oc2cc(OCc3ccc(Cl)cc3)ccc12	0.5 µM
O=c1cc(N2CCOCC2)oc2cc(OCc3ccccc3)ccc12	0.65 µM
O=C(Oc1ccc2c(=O)cc(N3CCOCC3)oc2c1)c1ccccc1	3 µM
O=c1cc(N2CCCC2)oc2c1ccc1ccccc12 [Compound 312, 2-pyrrolidin-1-yl-benzo[h]chromen-4-one]	10 µM
